Target: STING WT variant (Homo sapiens, UniProt Q86WV6)
Construct: host or cells: HEK-Blue ISG KO-STING cells (Invivogen, hkb-kostg)
Experiment: SEAP reporter assay in HEK-Blue ISG KO-STING cells transfected with STING WT variant (Method 2)
Assay type: cell-based
Design: key: ratio of compound SEAP signal to 0.5% DMSO
Conditions: 1 ng STING vector (WT variant), compound 2.5 uM, 24 h, SEAP signal vs 0.5% DMSO
Test Readout: Fold change related to DMSO control WT
Give bare numbers.

[
  {
    "Compound": "CCn1nc(C)cc1C(=O)Nc1nc2cc(C(N)=O)cc(OCCCNS(=O)(=O)CCN)c2n1CCC[C@H]1COc2cc(C(N)=O)cc3nc(NC(=O)c4cc(C)nn4CC)n1c23 [Example 44]",
    "Target Or System": "STING WT variant (Homo sapiens, UniProt Q86WV6)",
    "Fold change related to DMSO control WT": 6.47
  },
  {
    "Compound": "CCn1nc(C)cc1C(=O)Nc1nc2cc(C(N)=O)cc(OCCCNS(=O)(=O)C3CCNCC3)c2n1CCC[C@H]1COc2cc(C(N)=O)cc3nc(NC(=O)c4cc(C)nn4CC)n1c23 [Example 45]",
    "Target Or System": "STING WT variant (Homo sapiens, UniProt Q86WV6)",
    "Fold change related to DMSO control WT": 4.43
  },
  {
    "Compound": "CCn1nc(C)cc1C(=O)Nc1nc2cc(C(N)=O)cc(OCCCNC(=O)CN3CCOCC3)c2n1CCC[C@H]1COc2cc(C#N)cc3nc(NC(=O)c4cc(C)nn4CC)n1c23 [Example 47]",
    "Target Or System": "STING WT variant (Homo sapiens, UniProt Q86WV6)",
    "Fold change related to DMSO control WT": 9.80
  },
  {
    "Compound": "CCn1nc(C)cc1C(=O)Nc1nc2cc(C(N)=O)cc(OCCCNC(=O)CN3CCC(O)CC3)c2n1CCC[C@H]1COc2cc(C(N)=O)cc3nc(NC(=O)c4cc(C)nn4CC)n1c23 [Example 40]",
    "Target Or System": "STING WT variant (Homo sapiens, UniProt Q86WV6)",
    "Fold change related to DMSO control WT": 7.82
  },
  {
    "Compound": "CCn1nc(C)cc1C(=O)Nc1nc2cc(C(N)=O)cc(OCCCNC(=O)CN3CC[C@@H](OC)C3)c2n1CCC[C@H]1COc2cc(C(N)=O)cc3nc(NC(=O)c4cc(C)nn4CC)n1c23 [Example 39]",
    "Target Or System": "STING WT variant (Homo sapiens, UniProt Q86WV6)",
    "Fold change related to DMSO control WT": 11.39
  }
]

Would you be so kind as to report Fold change related to DMSO control WT for each listed record?
1. CCn1nc(C)cc1C(=O)Nc1nc2cc(C(N)=O)cc(OCCCNC(=O)CN3CCOCC3)c2n1CCC[C@H]1COc2cc(C(N)=O)cc3nc(NC(=O)c4c(F)c(C)nn4CC)n1c23 [Example 53]
2. CCn1nc(C)cc1C(=O)Nc1nc2cc(C(N)=O)cc(OCCCOC)c2n1CCC[C@H]1COc2cc(C(N)=O)cc3nc(NC(=O)c4c(F)c(C)nn4CC)n1c23 [Example 50]
3. CCn1nc(C)c(F)c1C(=O)Nc1nc2cc(C(N)=O)cc(OCCCOC)c2n1CCC[C@H]1COc2cc(C(N)=O)cc3nc(NC(=O)c4c(F)c(C)nn4CC)n1c23 [Example 49]
4. CCn1nc(C)cc1C(=O)Nc1nc2cc(C(N)=O)cc(OCCCNC(=O)CN3CC(COC)C3)c2n1CCC[C@H]1COc2cc(C(N)=O)cc3nc(NC(=O)c4cc(C)nn4CC)n1c23 [Example 41]
5. CCn1nc(C)cc1C(=O)Nc1nc2cc(C(N)=O)cc(OCCCNC(=O)CN(C)C)c2n1CCC[C@H]1COc2cc(C(N)=O)cc3nc(NC(=O)c4c(F)c(C)nn4CC)n1c23 [Example 52]
6. CCn1nc(C)cc1C(=O)Nc1nc2cc(C(N)=O)cc(OCCCNC(=O)CN3CCOCC3)c2n1CCC[C@H]1COc2cc(C(N)=O)cc3nc(NC(=O)c4c(Cl)c(C)nn4CC)n1c23 [Example 55]
7. CCn1nc(C)cc1C(=O)Nc1nc2cc(C(N)=O)cc(OCCCO)c2n1CCC[C@H]1CN(C)c2cc(C(N)=O)cc3nc(NC(=O)c4cc(C)nn4CC)n1c23 [Example 57]

Result string:
1. 10.85
2. 8.92
3. 11.17
4. 7.15
5. 11.79
6. 11.71
7. 11.24

Sourced from patent US12364702B2
